Listed below: normalized growth values for each entry.
Experiment: chemical genetic growth profiling, strain panel (AID 1159580);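 note: tested at 20 µM; growth read once vehicle control cultures reached saturation at 30 °C; 1 = growth at the plate median or of vehicle wells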
Details: S. cerevisiae deletion strains, growth OD, locus YNL248C, strain rpa49, stronger effect = lower value
The campaign covered roughly 5,500 compounds. About 2,000 (36%) were called active. Roughly 18% stayed inconclusive and do not appear here. The list shows a part of the results.
experimentalReadout: normalized growth

compound=COc1ccc(-c2coc3c(OC)c(OC)cc(O)c3c2=O)cc1 number=1.01
compound="CCCCCC(C)N (stereo unspecified)" number=1.03
compound="NCC1CCCCC1CC(=O)O (stereo unspecified)" number=1.01
compound=CCCCOc1ccc(CC(=O)NO)cc1 number=0.968
compound="COC(=O)C1=COC(OC2OC(CO)C(O)C(O)C2O)C2C(C)CC(=O)C12O (stereo unspecified)" number=1.03
compound=C=CC1=C(C(=O)O)N2C(=O)[C@@H](NC(=O)/C(=N/O)c3csc(N)n3)[C@H]2SC1 number=1.04
compound=c1ccc(CC2=NCCN2)cc1 number=1.05
compound=NC/C=C/C(=O)O number=1.01
compound=C[N+](C)(C)CC(=O)[O-] number=1.01
compound="CC1(C)C2CC[C@]3(C)C(C(=O)C=C4[C@@H]5C[C@@](C)(C(=O)O)CC[C@]5(C)CC[C@]43C)[C@@]2(C)CC[C@@H]1OC(=O)CCC(=O)O (stereo partly specified)" number=0.909
compound=NC(=O)N1c2ccccc2CC(=O)c2ccccc21 number=0.997
compound="CC(C)CC1C(=O)N2CCC[C@H]2C2(O)O[C@](NC(=O)C3C=C4c5cccc6[nH]c(Br)c(c56)C[C@H]4N(C)C3)(C(C)C)C(=O)N12 (stereo partly specified)" number=0.993
compound=CC(C)[C@H](N)C(=O)OCCOCn1cnc2c(=O)[nH]c(N)nc21 number=1.04
compound=O=C(O)c1ccccc1OP(=O)(O)O number=0.971
compound=C[C@@H](N)CO number=0.942
compound="CC1(C)C2CC[C@]3(C)C(C(=O)C=C4[C@H]5C[C@@](C)(C(=O)O)CC[C@]5(C)CC[C@]43C)[C@@]2(C)CC[C@@H]1O (stereo partly specified)" number=0.926

====

Assay: chemical genetic growth profiling, strain panel (AID 1159580);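 note: tested at 20 µM; growth read once vehicle control cultures reached saturation at 30 °C; 1 = growth at the plate median or of vehicle wells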
Settings: S. cerevisiae deletion strains, growth OD, locus YER155C, strain BEM2
About 2,000 (36%) of roughly 5,500 compounds were called active. About 18% were inconclusive and are not listed. No stated cut-off is given here; in the data, active means normalized growth mostly below about 0.91 (no sharp cut-off); inconclusive means no clear call, values can overlap the other calls; inactive means mostly above about 0.92. This is one part of the list.
Labels: class 1 (active), class 0 (inactive)

compound="CCc1cccc(C)c1N(C(=O)CCl)C(C)COC (stereo not given)" assignedlabel="class 0"
compound=COC(=O)c1c(Cl)c(Cl)c(C(=O)OC)c(Cl)c1Cl assignedlabel="class 0"
compound=CC(C)=CCc1c(O)cc(C)oc1=O assignedlabel="class 0"
compound=O=C1C[C@@H](c2ccccc2)Oc2cc(O)cc(O)c21 assignedlabel="class 0"
compound="CCCCCC(C)N (stereo not given)" assignedlabel="class 0"
compound="CC(=O)O[C@H]1C(=O)[C@@]2(C)C([C@H](OC(=O)c3ccccc3)[C@]3(O)C[C@H](OC(=O)[C@H](O)[C@@H](NC(=O)c4ccccc4)c4ccccc4)C(C)=C1C3(C)C)[C@]1(OC(C)=O)CO[C@@H]1C[C@@H]2O (stereo not given in full)" assignedlabel="class 0"
compound=O=C1C[C@@H](c2ccc(O)cc2)Oc2cc(O)cc(O)c21 assignedlabel="class 0"
compound=O=C(O)COc1cc(Cl)c(Cl)cc1Cl assignedlabel="class 0"
compound="O=C1CC(c2ccc(O)cc2)Oc2ccccc21 (stereo not given)" assignedlabel="class 1"
compound=CC(C)=CCc1c(O)cc2oc(C)cc(=O)c2c1O assignedlabel="class 0"

====

Listed below: normalized growth values for each entry.
Experiment: chemical genetic growth profiling, strain panel (AID 1159580);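 note: tested at 20 µM; growth read once vehicle control cultures reached saturation at 30 °C; 1 = growth at the plate median or of vehicle wells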
Conditions: S. cerevisiae deletion strains, growth OD, locus YNL224C, strain SQS1, stronger effect = lower value
Out of some 5,500 compounds screened, about 2,000 (36%) were called active. About 18% were inconclusive and are not listed. This is one part of the list.
experimentalReadout: normalized growth

compound=Oc1ccc(O)cc1 experimentalreadout="normalized growth" number=1.02
compound="COc1cc(C(O)C(=O)O)ccc1O (centres undefined)" experimentalreadout="normalized growth" number=1.02
compound=NC(N)=Nc1nc(CSCCC(N)=NS(N)(=O)=O)cs1 experimentalreadout="normalized growth" number=0.986
compound=C[N+](C)(C)CC(=O)O experimentalreadout="normalized growth" number=1.01
compound="N#CC(Cc1ccc(O)c(O)c1)C(=O)N1CCc2ccccc21 (centres undefined)" experimentalreadout="normalized growth" number=0.994
compound=NCC1(CC(=O)O)CCCCC1 experimentalreadout="normalized growth" number=1.02
compound=OCCN(CCO)c1nc(N2CCCCC2)c2nc(N(CCO)CCO)nc(N3CCCCC3)c2n1 experimentalreadout="normalized growth" number=0.999
compound=CC[N+](C)(C)Cc1ccccc1Br experimentalreadout="normalized growth" number=0.983
compound=COc1ccccc1N1CCN(CCCCNC(=O)c2ccc3ccccc3c2)CC1 experimentalreadout="normalized growth" number=0.983
compound=Nc1cc(Cl)c(NC2=NCCN2)c(Cl)c1 experimentalreadout="normalized growth" number=1.02
compound=NC(=O)COc1c(F)cc(SCCNS(=O)(=O)c2ccccc2)cc1F experimentalreadout="normalized growth" number=0.983
compound=NC(=NCCC[C@H](N)C(=O)O)NO experimentalreadout="normalized growth" number=0.992
compound=c1ccc2cc(CC3=NCCN3)ccc2c1 experimentalreadout="normalized growth" number=1.01
compound=O=C(O)[C@H]1NCCC[C@H]1C(=O)O experimentalreadout="normalized growth" number=0.999
compound=OC[C@H]1NC[C@@H](O)[C@@H]1O experimentalreadout="normalized growth" number=0.992
compound=Cc1cccc(C#Cc2ccccc2)n1 experimentalreadout="normalized growth" number=1
compound=COC(=O)c1c(C)[nH]c(C)c1C(=O)c1ccccc1Cc1ccccc1 experimentalreadout="normalized growth" number=0.983
compound=N=c1nc(N2CCCCC2)cc(N)n1O experimentalreadout="normalized growth" number=1.01
compound=CCCC(=O)NCCc1c2n(c3ccc(OC)cc13)CCCc1ccccc1-2 experimentalreadout="normalized growth" number=0.984
compound=O=C(O)c1cc(=O)c2ccc(Cl)cc2[nH]1 experimentalreadout="normalized growth" number=1
compound="O[Si](CCCN1CCCCC1)(c1ccc(F)cc1)C1CCCCC1 (centres undefined)" experimentalreadout="normalized growth" number=1.01
compound=O=C(OCCN1CCCCC1)c1c[nH]c2ccccc12 experimentalreadout="normalized growth" number=0.994
compound=O=c1[nH]c2ccccc2c2ccccc12 experimentalreadout="normalized growth" number=1.01
compound="CCOC(=O)C1=C(C)NC(=S)NC1c1cccc(O)c1 (centres undefined)" experimentalreadout="normalized growth" number=0.996

====

Test: chemical genetic growth profiling, strain panel (AID 1159580);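 note: tested at 20 µM; growth read once vehicle control cultures reached saturation at 30 °C; 1 = growth at the plate median or of vehicle wells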
Conditions: S. cerevisiae deletion strains, growth OD, locus YER110C
About 2,000 (36%) of roughly 5,500 compounds were called active. Inconclusive results (about 18%) are left out. Rule as the data show it: active = normalized growth mostly below about 0.91 (no sharp cut-off); inconclusive = no clear call, values can overlap the other calls; inactive = mostly above about 0.92. The list shows a part of the results.
Labels: T (active), F (inactive)

molecule=C/C=C(/C(=C/C)c1ccc(O)cc1)c1ccc(O)cc1 assignedlabel=F
molecule=Nc1nc2[nH]c(=O)c(=O)[nH]c2c(=O)[nH]1 assignedlabel=F
molecule=COC(=O)COc1cc(Cl)c(Cl)cc1Cl assignedlabel=F
molecule=COc1ccc2c(c1)OC[C@@H](Cc1ccc(OC)c(OC)c1)[C@H]2O assignedlabel=F
molecule="COc1cccc2c1CCC1CC(=O)CCC21C (stereo unspecified)" assignedlabel=F
molecule=CCC1(c2ccccc2)C(=O)NCNC1=O assignedlabel=F
molecule="CO[C@H]1C[C@H](O[C@H]2[C@H](C)[C@@H](OC3O[C@H](C)C[C@H](N(C)C)[C@H]3O)[C@@H](C)C[C@]3(CO3)C(=O)[C@H](C)[C@@H](O)[C@@H](C)[C@@H](C)OC(=O)[C@@H]2C)O[C@@H](C)[C@@H]1O (stereo partly specified)" assignedlabel=F
molecule="OCC(O)Cc1ccc2c(c1)OCO2 (stereo unspecified)" assignedlabel=F
molecule=S=C=NCc1ccccc1 assignedlabel=T
molecule="CCC1(c2ccc(N)cc2)CCC(=O)NC1=O (stereo unspecified)" assignedlabel=F
molecule=CC(C)=CCc1c(O)cc2oc(C)cc(=O)c2c1O assignedlabel=F
molecule="COc1cc2c(cc1OC)C(=O)C(CC1CCN(Cc3ccccc3)CC1)C2 (stereo unspecified)" assignedlabel=F
molecule="Cc1ccc(C(=O)C(C)CN2CCCCC2)cc1 (stereo unspecified)" assignedlabel=F
molecule=COC(=O)c1c(Cl)c(Cl)c(C(=O)OC)c(Cl)c1Cl assignedlabel=F
molecule=N#Cc1c(Cl)c(Cl)c(Cl)c(C#N)c1Cl assignedlabel=F
molecule="CN1Cc2c(ccc3c2OCO3)C2C(O)Cc3cc4c(cc3C21)OCO4 (stereo unspecified)" assignedlabel=F
molecule=Cc1ccc(O)cc1 assignedlabel=F
molecule=COc1ccc2c(c1)[C@@]1(C)CCC(=O)C[C@H]1CC2 assignedlabel=F
molecule=COc1c(CC=C(C)C)c2c(c3oc(=O)c(-c4ccc(O)cc4)c(O)c13)C=CC(C)(C)O2 assignedlabel=F
molecule=C1CCc2nnnn2CC1 assignedlabel=F
molecule=COc1ccc(C(=O)c2ccccc2O)c(O)c1 assignedlabel=F
